# assayed-target: G-protein coupled receptor 35 (Homo sapiens, UniProt Q9HC97)
# Sequence (Q9HC97 whole entry): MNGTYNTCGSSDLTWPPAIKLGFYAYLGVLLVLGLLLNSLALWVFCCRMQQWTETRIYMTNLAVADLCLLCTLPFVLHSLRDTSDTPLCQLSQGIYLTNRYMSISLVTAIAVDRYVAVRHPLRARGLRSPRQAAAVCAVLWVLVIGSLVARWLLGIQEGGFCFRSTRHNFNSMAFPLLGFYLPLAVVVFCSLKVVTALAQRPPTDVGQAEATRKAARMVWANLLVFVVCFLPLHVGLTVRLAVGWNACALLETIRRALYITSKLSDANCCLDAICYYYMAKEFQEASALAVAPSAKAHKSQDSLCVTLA
# test: Agonist activity at human GPR35 by beta-arrestin recruitment assay
# Assay type: functional
Kindly state pEC50 for each of the entries shown.
Numbers only, as −log10 of the molar value.

O=C(O)c1cc(=O)c2c(OCC(O)COc3cccc4oc(C(=O)O)cc(=O)c34)cccc2o1 : 5.10

Moving on to the next compound.
Field request: pEC50 | item: N#Cc1cc(NC(=O)C(=O)O)c(Cl)c(NC(=O)C(=O)O)c1 [LODOXAMIDE]
8.40

====

Kindly state Emax for each of the entries shown.
# assayed-target: G-protein coupled receptor 35 (Mus musculus) (UniProt Q9ES90)
# test: Agonist activity at mouse GPR35 expressed in HEK293 cells co-expressing Galpha16 assessed as increase in calcium mobilization by Fluo-4 AM dye based fluorescence assay relative to-iodoxamide
# Format: functional, cell-based
# run-parameters: filed as agonist
Answers are plain numbers, in %.

Worked examples, 5 molecules total:
O=C(Nc1cc(C(F)(F)F)cc(NC(=O)C(=O)OC2CCCC2)c1Cl)C(=O)OC1CCCC1 : 91
O=C(O)C(=O)Nc1cc(C(=O)O)cc(NC(=O)C(=O)O)c1Cl : 75
O=C(O)C(=O)Nc1cc(Br)cc(NC(=O)C(=O)O)c1Cl : 106
O=C(O)C(=O)Nc1cccc(NC(=O)C(=O)O)c1 : 105
CCOC(=O)C(=O)Nc1cc(C#N)cc(NC(=O)C(=O)OCC)c1Cl [LODOXAMIDE ETHYL] : 139

Lookup: Emax / G-protein coupled receptor 35 (Mus musculus) (UniProt Q9ES90) / O=C(Nc1cc(C(F)(F)F)cc(NC(=O)C(=O)OC2CC2)c1Cl)C(=O)OC1CC1
86

====

Kindly state log10 of EC50 for each of the entries shown.
# assayed-target: G-protein coupled receptor 35 (Mus musculus, UniProt Q9ES90)
# Sequence (Q9ES90 whole entry): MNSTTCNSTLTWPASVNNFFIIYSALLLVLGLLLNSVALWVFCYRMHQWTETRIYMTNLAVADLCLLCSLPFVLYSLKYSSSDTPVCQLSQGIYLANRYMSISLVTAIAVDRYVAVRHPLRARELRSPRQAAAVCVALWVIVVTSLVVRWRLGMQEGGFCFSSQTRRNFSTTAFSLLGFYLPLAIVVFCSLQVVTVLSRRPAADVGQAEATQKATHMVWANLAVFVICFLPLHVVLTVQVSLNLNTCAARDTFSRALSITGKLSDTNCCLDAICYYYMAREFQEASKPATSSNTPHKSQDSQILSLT
# test: Agonist activity at mouse GPR35 expressed in HEK293 cells co-expressing Galpha16 assessed as increase in calcium mobilization by Fluo-4 AM dye based fluorescence assay
# Type: functional, cell-based
Answers are given as log10 of EC50 in nM.

O=C(O)C(=O)Nc1cc(C(F)(F)F)cc(NC(=O)C(=O)O)c1Cl : 1.75

// for each molecule in input: emit log10 of EC50
1. O=C(O)C(=O)Nc1cc(Br)cc(NC(=O)C(=O)O)c1Cl
2. CCOC(=O)C(=O)Nc1cccc(NC(=O)C(=O)OCC)c1Cl
3. CCOC(=O)C(=O)Nc1cc(Br)cc(NC(=O)C(=O)OCC)c1Cl
4. N#Cc1cc(NC(=O)C(=O)O)c(Cl)c(NC(=O)C(=O)O)c1 [LODOXAMIDE]
5. COC(=O)C(=O)Nc1cc(C(F)(F)F)cc(NC(=O)C(=O)OC)c1Cl

[1.45, 3.51, 1.63, 2.63, 1.43]

// for each molecule in input: emit log10 of EC50
1. O=C(Nc1cc(C(F)(F)F)cc(NC(=O)C(=O)OC2CC2)c1Cl)C(=O)OC1CC1
2. O=C(O)C(=O)Nc1cccc(NC(=O)C(=O)O)c1
3. O=C(Nc1cc(C(F)(F)F)cc(NC(=O)C(=O)OC2CCCCC2)c1Cl)C(=O)OC1CCCCC1
4. O=C(O)C(=O)Nc1cc(C(=O)O)cc(NC(=O)C(=O)O)c1Cl

[2.08, 3.91, 1.79, 3.72]

Field request: log10 of EC50 | item: O=C(O)C(=O)Nc1cccc(NC(=O)C(=O)O)c1Cl
3.56

====

Kindly state pEC50 for each of the entries shown.
# test: Agonist activity at rat GPR35 by beta-arrestin recruitment assay
One number for each entry, as −log10 of the molar value.

COc1ccc(C(=O)Nc2cc(Br)cc3c(=O)cc(C(=O)O)oc23)cc1 : 5.85
N#Cc1cc(NC(=O)C(=O)O)c(Cl)c(NC(=O)C(=O)O)c1 [LODOXAMIDE] : 7.89
O=C(O)c1cc(=O)c2c(OCC(O)COc3cccc4oc(C(=O)O)cc(=O)c34)cccc2o1 : 5.40
CCCOc1ccccc1-c1nc2[nH]nnc2c(=O)[nH]1 : 7.00
O=C1N/C(=N/c2ccccc2F)S/C1=C\c1ccc(C(=O)O)cc1 : 5.10

Field request: pEC50 | item: CCCCc1cc2c(=O)cc(C(=O)O)[nH]c2c2c(=O)cc(C(=O)O)[nH]c12
8.00

====

Kindly state pEC50 for each of the entries shown.
# assayed-target: G-protein coupled receptor 35 (Mus musculus, UniProt Q9ES90)
# test: Agonist activity at mouse GPR35 by beta-arrestin recruitment assay
# Format: functional
One number for each entry, as −log10 of the molar value.

O=C(O)c1cc(=O)c2c(OCC(O)COc3cccc4oc(C(=O)O)cc(=O)c34)cccc2o1 [CROMOLYN] : 4.24

Field request: pEC50 | item: CCCOc1ccccc1-c1nc2[nH]nnc2c(=O)[nH]1 [ZAPRINAST]
6.00

====

# assayed-target: G-protein coupled receptor 35 (Homo sapiens)
# test: Agonist activity at human GPR35 expressed in HEK293 cells co-expressing Galpha16 assessed as increase in calcium mobilization by Fluo-4 AM dye based fluorescence assay
# Type: functional, cell-based
pEC50: −log10 of the molar value.
Label Criterion met when pEC50 >= 7; otherwise Criterion not met.

Known results for molecules:
O=C(O)C(=O)Nc1cc(Br)cc(NC(=O)C(=O)O)c1Cl : Criterion met
O=C(Nc1cc(C(F)(F)F)cc(NC(=O)C(=O)OC2CCCC2)c1Cl)C(=O)OC1CCCC1 : Criterion not met
O=C(O)C(=O)Nc1cccc(NC(=O)C(=O)O)c1 : Criterion not met
CCOC(=O)C(=O)Nc1cc(C#N)cc(NC(=O)C(=O)OCC)c1Cl [LODOXAMIDE ETHYL] : Criterion met

Now look at this entry.
Does pEC50 meet or surpass 7 for N#Cc1cc(NC(=O)C(=O)O)c(Cl)c(NC(=O)C(=O)O)c1 [LODOXAMIDE] ?
Criterion met

====

# assayed-target: G-protein coupled receptor 35 (Mus musculus)
# test: Agonist activity at mouse GPR35 expressed in HEK293 cells co-expressing Galpha16 assessed as increase in calcium mobilization by Fluo-4 AM dye based fluorescence assay
# Type: functional, cell-based
assay-endpoint: EC50 (µM)
One number for each entry, in µM.

Worked examples, 8 molecules total:
Cc1cc(NC(=O)C(=O)O)c(Cl)c(NC(=O)C(=O)O)c1 : 0.0691
CN(C)c1c(NC(=O)C(=O)O)cc(C#N)cc1NC(=O)C(=O)O : 9.16
O=C(Nc1cc(C(F)(F)F)cc(NC(=O)C(=O)OC2CCCC2)c1Cl)C(=O)OC1CCCC1 : 0.126
O=C(O)C(=O)Nc1cc(NC(=O)C(=O)O)cc(C(F)(F)F)c1 : 0.0124
COc1c(NC(=O)C(=O)O)cc(C#N)cc1NC(=O)C(=O)O : 3.11
CCOC(=O)C(=O)Nc1cc(C(=O)OCC(C)C)cc(NC(=O)C(=O)OCC)c1Cl : 0.0209
CCOC(=O)C(=O)Nc1cc(C#N)cc(NC(=O)C(=O)OCC)c1Cl [LODOXAMIDE ETHYL] : 0.263
N#Cc1cc(NC(=O)C(=O)O)cc(NC(=O)C(=O)O)c1 : 0.376

Moving on to the next molecule.
Field request: EC50 | item: CCOC(=O)C(=O)Nc1cc(C(F)(F)F)cc(NC(=O)C(=O)OCC)c1Cl
0.0637
